Hey, just so you know, these numbers are from patent US20190185561A1.

Biological target: T1, Soluble recombinant human CD47-Fc (R&D Systems) (human, UniProt Q08722 19-139)
T1 construct: Bought reagent; also called rhCD47; human CD47 (plate-coated); not shown: Fc part of the bought fusion protein
Assay: hCD47 ELISA, absorbance at 450 nm against antibody concentration
Value type: EC50 (read off the curve)

Binder: hB6H12.4 (antibody, V domains shown, also called hvH1/hvK4; antibody 4 (bin A)) VH: EVQLLESGGGLVQPGGSLRLSCAASGFTFSGYGMSWVRQAPGKRLEWVATITSGGTYTYYPDSVKGRFTISRDNSKNTLYLQMNSLRAEDTAIYFCARSLAGNAMDYWGQGTLVTVSS VL: DIQMTQSPSSLSASVGDRVTLTCRASQTISNYLAWYQQKPGKVPKLLIKFASTLQSGVPSRFSGSGSGSDFTLTISSLQPEDVATYYCQNGHGFPRTFGQGTKLEIKR
EC50 (read off the curve): ~1 nM
//
Binder: hB6H12.19 (antibody, V domains shown, also called hvH5/hvK3; antibody 19 (bin B)) VH: EVQLVESGGGLVQPGGSLRLSCAASGFTFSGYGMSWVRQAPGKGLEWVATITSGGTYTYYADSVKGRFTISRDNSKNTLYLQINSLRAEDTAVYYCARSLAGNAMDYWGQGTLVTVSS VL: EIVMTQSPDFQSVTPKEKVTLTCRASQTISDYLHWYQQKPDQSPKLLIKFASQSISGVPSRFSGSGSGSDFTLTINSLEAEDAATYYCQNGHGFPRTFGQGTKLEIKR
EC50 (read off the curve): ~3 nM

[in] For the binder shown here, Ab47 (antibody, V domains shown, Humanized IgG1; also called alternatively humanized antibody Ab47; humanized IgG1 hB6H12 Ab47) VH: EVQLVESGGGLVQPGGSLRLSCAASGFTFSGYGMSWVRQAPGKGLEWVATITSGGTYTYYPDSVKGRFTISRDNAKNSLYLQMNSLRAEDTAVYYCARSLAGNAMDYWGQGTLVTVSS VL: EIVLTQSPATLSLSPGERATLSCRASQTISDYLHWYQQKPGQAPRLLIKFASQSISGIPARFSGSGSGTDFTLTISSLEPEDFAVYYCQNGHGFPRTFGQGTKVEIKR , give the reported EC50 (read off the curve).
[out] ~1 nM

[in] For the binder shown here, hB6H12.20 (antibody, V domains shown, also called hvH5/hvK4; antibody 20 (bin B)) VH: EVQLVESGGGLVQPGGSLRLSCAASGFTFSGYGMSWVRQAPGKGLEWVATITSGGTYTYYADSVKGRFTISRDNSKNTLYLQINSLRAEDTAVYYCARSLAGNAMDYWGQGTLVTVSS VL: DIQMTQSPSSLSASVGDRVTLTCRASQTISNYLAWYQQKPGKVPKLLIKFASTLQSGVPSRFSGSGSGSDFTLTISSLQPEDVATYYCQNGHGFPRTFGQGTKLEIKR , give the reported EC50 (read off the curve).
[out] ~4 nM
